target: IKZF3 (Aiolos) (Homo sapiens, UniProt Q9UKT9); construct: Leu-Asp junction (codons ctcgac before the linker); mScarlet (behind P2A) (C, cleaved yes); expressed in transfected cells; test: IKZF3 reporter degradation assay (HEK 293T IKZF3-mNeonGreen reporter cell line); type: cell-based; conditions: HEK 293T IKZF3-mNeonGreen reporter, 24 hours incubation
Sequence (Q9UKT9 whole entry, one chain of several): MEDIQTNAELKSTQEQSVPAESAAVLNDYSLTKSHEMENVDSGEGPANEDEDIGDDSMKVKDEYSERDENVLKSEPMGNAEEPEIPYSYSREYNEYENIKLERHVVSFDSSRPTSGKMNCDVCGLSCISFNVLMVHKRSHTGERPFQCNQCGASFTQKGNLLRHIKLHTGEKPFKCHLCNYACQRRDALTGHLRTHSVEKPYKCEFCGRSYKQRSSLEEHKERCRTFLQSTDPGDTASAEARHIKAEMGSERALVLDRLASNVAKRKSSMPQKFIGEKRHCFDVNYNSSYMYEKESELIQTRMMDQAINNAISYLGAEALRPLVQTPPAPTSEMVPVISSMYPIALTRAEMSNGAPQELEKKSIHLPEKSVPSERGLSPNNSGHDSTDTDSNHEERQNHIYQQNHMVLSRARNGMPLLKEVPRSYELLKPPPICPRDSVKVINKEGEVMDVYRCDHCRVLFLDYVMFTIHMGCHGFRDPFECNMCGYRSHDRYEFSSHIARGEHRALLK
The entries below are paired with their reported DC50.

- molecule: "COc1cc(C2CN(C3CCCC3Oc3ccc4c(c3)CN(C3CCC(=O)NC3=O)C4=O)C2)ccn1 (stereo not shown)"
  DC50: "> 30 µM"
- molecule: "O=C1CCC(N2Cc3cc(O[C@@H]4CCCC[C@H]4N4CC(c5ccc(Cl)cn5)C4)ccc3C2=O)C(=O)N1 (mixture of isomers)"
  DC50: "> 30 µM"
- molecule: "O=C1CCC(N2Cc3cc(OC4CCCCC4N4CC(c5ccnnc5)C4)ccc3C2=O)C(=O)N1 (stereo not shown)"
  DC50: "> 30 µM"
- molecule: "O=C1CCC(N2Cc3cc(O[C@H]4CCCC[C@@H]4N4CC(C5CCN(C(=O)C6(F)CC6)CC5)C4)ccc3C2=O)C(=O)N1 (stereo partly shown)"
  DC50: "0.021 µM"
- molecule: "CC12CC(C(=O)N3CCC(C4CN([C@H]5CCCC[C@@H]5Oc5ccc6c(c5)CN(C5CCC(=O)NC5=O)C6=O)C4)CC3)(C1)C2 (stereo partly shown)"
  DC50: "0.013 µM"
- molecule: "O=C1CCC(N2Cc3cc(O[C@@H]4CCCC[C@@H]4N4CC(c5cncc(Cl)c5)C4)ccc3C2=O)C(=O)N1 (mixture of isomers)"
  DC50: "> 30 µM"
- molecule: "O=C1CCC(N2Cc3cc(OC4CCC[C@@H]4N4CC(c5ccncc5)C4)ccc3C2=O)C(=O)N1 (mixture of isomers) [Compound 205-B]"
  DC50: "> 30 µM"
- molecule: "O=C1CCC(N2Cc3cc(O[C@H]4CCCC[C@@H]4N4CC(n5ccnc5)C4)ccc3C2=O)C(=O)N1 (stereo partly shown)"
  DC50: "> 30 µM"
- molecule: "O=C1CCC(N2Cc3cc(O[C@H]4CCCC[C@@H]4N4CC(C5CCN(C(=O)c6ccccc6)CC5)C4)ccc3C2=O)C(=O)N1 (stereo partly shown)"
  DC50: "> 30 µM"
- molecule: "O=C1CCC(N2Cc3cc(OC4CCC[C@@H]4N4CC(c5cccnc5)C4)ccc3C2=O)C(=O)N1 (mixture of isomers) [Compound 207-B]"
  DC50: "> 30 µM"
- molecule: "O=C1CCC(N2Cc3cc(O[C@H]4CCCC[C@@H]4N4CC(c5ccc(Cl)cn5)C4)ccc3C2=O)C(=O)N1 (single isomer, unassigned) [Compound 99-B]"
  DC50: "> 30 µM"
- molecule: "O=C1CCC(N2Cc3cc(O[C@H]4CCCC[C@@H]4N4CC(c5ccc6ccccc6n5)C4)ccc3C2=O)C(=O)N1 (single isomer, unassigned) [Compound 89-B]"
  DC50: "> 30 µM"
- molecule: "O=C1CCC(N2Cc3cc(O[C@H]4CCCC[C@@H]4N4CC(c5ccncc5F)C4)ccc3C2=O)C(=O)N1 (single isomer, unassigned) [Compound 103-B]"
  DC50: "> 30 µM"

---

The entries below are paired with their reported inhibition at 1 µM.
biological target: IKZF2 (Helios) (Homo sapiens, UniProt Q96SW2+Q9UKS7); construct: Leu-Asp junction (codons ctcgac before the linker); mScarlet (behind P2A) (C, cleaved yes); expressed in transfected cells; experiment: IKZF2 reporter degradation assay (HEK 293T IKZF2-mNeonGreen reporter cell line); assay type: cell-based; details: HEK-293T, 24 h, @ 1 μM, HEK 293T IKZF2-mNeonGreen reporter, 24 hours incubation
Sequence (Q9UKS7 whole entry): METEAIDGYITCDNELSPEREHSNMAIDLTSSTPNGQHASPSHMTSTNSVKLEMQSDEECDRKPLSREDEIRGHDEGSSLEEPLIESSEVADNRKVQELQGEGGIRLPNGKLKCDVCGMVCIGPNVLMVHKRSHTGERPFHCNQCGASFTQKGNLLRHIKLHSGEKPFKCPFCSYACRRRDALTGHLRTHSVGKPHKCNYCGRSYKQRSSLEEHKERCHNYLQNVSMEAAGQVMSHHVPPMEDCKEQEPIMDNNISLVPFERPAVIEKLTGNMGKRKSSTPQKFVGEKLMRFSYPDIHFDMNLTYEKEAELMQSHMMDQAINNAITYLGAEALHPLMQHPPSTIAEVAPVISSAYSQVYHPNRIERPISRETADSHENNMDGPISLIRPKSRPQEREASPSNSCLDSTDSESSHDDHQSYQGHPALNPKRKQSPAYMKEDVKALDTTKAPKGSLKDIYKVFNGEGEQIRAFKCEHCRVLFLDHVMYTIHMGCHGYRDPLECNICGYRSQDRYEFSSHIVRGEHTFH
Sequence (Q96SW2 whole entry): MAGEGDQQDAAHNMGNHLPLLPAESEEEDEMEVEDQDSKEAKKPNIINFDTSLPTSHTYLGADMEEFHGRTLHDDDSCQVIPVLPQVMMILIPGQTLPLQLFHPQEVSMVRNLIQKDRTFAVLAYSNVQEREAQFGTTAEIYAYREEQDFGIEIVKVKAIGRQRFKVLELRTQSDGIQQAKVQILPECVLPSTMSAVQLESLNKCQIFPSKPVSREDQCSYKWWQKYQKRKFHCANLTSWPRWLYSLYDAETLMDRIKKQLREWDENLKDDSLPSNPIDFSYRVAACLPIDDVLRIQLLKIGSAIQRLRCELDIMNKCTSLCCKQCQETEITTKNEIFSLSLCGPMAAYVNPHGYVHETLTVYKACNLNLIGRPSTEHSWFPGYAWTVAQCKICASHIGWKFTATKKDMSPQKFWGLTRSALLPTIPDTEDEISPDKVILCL
Sequence (Q16531 whole entry partner): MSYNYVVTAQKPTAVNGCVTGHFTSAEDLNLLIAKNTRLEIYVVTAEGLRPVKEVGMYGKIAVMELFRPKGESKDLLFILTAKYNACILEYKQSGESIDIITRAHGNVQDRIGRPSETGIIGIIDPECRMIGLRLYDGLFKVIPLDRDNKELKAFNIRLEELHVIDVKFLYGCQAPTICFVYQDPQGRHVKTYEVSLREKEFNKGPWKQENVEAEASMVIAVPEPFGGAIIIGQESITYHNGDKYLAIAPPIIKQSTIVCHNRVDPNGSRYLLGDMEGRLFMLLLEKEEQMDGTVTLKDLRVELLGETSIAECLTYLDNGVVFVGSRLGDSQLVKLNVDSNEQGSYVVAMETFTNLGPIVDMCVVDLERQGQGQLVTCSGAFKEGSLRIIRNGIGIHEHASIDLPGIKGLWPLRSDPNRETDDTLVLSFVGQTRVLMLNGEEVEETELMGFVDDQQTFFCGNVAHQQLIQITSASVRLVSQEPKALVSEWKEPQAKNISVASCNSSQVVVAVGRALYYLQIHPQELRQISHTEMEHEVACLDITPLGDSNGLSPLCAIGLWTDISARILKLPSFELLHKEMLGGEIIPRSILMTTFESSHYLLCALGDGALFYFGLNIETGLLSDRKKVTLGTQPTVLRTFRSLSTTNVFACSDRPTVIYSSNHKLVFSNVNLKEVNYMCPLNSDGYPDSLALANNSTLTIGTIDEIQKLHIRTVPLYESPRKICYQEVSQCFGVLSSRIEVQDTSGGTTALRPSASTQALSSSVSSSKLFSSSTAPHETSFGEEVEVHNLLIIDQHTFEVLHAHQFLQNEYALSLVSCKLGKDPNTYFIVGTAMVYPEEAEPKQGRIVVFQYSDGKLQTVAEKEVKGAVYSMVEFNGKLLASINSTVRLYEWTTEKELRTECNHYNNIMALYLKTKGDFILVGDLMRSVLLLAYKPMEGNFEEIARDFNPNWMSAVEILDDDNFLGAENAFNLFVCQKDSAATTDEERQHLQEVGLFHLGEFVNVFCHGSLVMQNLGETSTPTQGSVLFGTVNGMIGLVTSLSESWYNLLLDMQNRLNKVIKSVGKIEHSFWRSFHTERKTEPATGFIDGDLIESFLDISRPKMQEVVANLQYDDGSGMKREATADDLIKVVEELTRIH

- compound: "O=C1CCC(N2Cc3cc(OC4CCC[C@@H]4N4CC(c5cncnc5)C4)ccc3C2=O)C(=O)N1 (mixture of isomers)"
  inhibition at 1 µM (%): 17.6
- compound: "O=C1CCC(N2Cc3cc(O[C@H]4CCCC[C@@H]4N4CC(c5ncc(Br)cn5)C4)ccc3C2=O)C(=O)N1 (mixture of isomers) [Compound 137-B]"
  inhibition at 1 µM (%): 59.3
- compound: "O=C1CCC(N2Cc3cc(O[C@H]4CCCC[C@H]4N4CC(c5ccc(Cl)cn5)C4)ccc3C2=O)C(=O)N1 (single isomer, unassigned)"
  inhibition at 1 µM (%): 41.3
- compound: "Cc1ccnc(C2CN([C@H]3CCCC[C@@H]3Oc3ccc4c(c3)CN(C3CCC(=O)NC3=O)C4=O)C2)n1 (mixture of isomers)"
  inhibition at 1 µM (%): 42
- compound: "O=C1CCC(N2Cc3cc(O[C@H]4CCCC[C@@H]4N4CC(c5ccc(C(F)(F)F)nc5)C4)ccc3C2=O)C(=O)N1 (single isomer, unassigned)"
  inhibition at 1 µM (%): 94.8

---

molecular target: human E3 ligase component cereblon (CRBN) (Homo sapiens); experiment: Cereblon (CRBN) target engagement, NanoBRET TE Intracellular E3 Ligase Assay in transfected HEK-293T cells; conditions: read-out: CRBN Binding EC50
The threshold is 30 nM. Values of EC50 beneath it are tagged Fulfilled; values meeting or exceeding it are tagged Not fulfilled.

- compound: "O=C1CCC(N2Cc3cc(O[C@H]4CCCC[C@@H]4N4CC(c5ncc(Cl)cn5)C4)ccc3C2=O)C(=O)N1 (single isomer, unassigned) [Compound 111-B]"
  discrete label: "Fulfilled"
- compound: "O=C1CCC(N2Cc3cc(O[C@H]4CCCC[C@@H]4N4CC(C5CCN(C6CCC6)CC5)C4)ccc3C2=O)C(=O)N1 (stereo partly drawn) [Compound 56-A]"
  discrete label: "Not fulfilled"
- compound: "O=C1CCC(N2Cc3cc(OC4CCCC4N4CC(c5ccc(C(F)(F)F)nc5)C4)ccc3C2=O)C(=O)N1 (stereo not drawn) [Compound 141-B]"
  discrete label: "Not fulfilled"
- compound: "O=C1CCC(N2Cc3cc(O[C@H]4CCCC[C@@H]4N4CC(c5ccc(C(F)(F)F)nc5)C4)ccc3C2=O)C(=O)N1 (mixture of isomers) [Compound 191-B]"
  discrete label: "Not fulfilled"
- compound: "O=C1CCC(N2Cc3cc(OC4CCC[C@@H]4N4CC(c5ccncc5)C4)ccc3C2=O)C(=O)N1 (mixture of isomers) [Compound 205-B]"
  discrete label: "Not fulfilled"

---

target: IKZF3 (Aiolos) (Homo sapiens, UniProt Q9UKT9); construct: Leu-Asp junction (codons ctcgac before the linker); mScarlet (behind P2A) (C, cleaved yes); expressed in transfected cells; test: IKZF3 reporter degradation assay (HEK 293T IKZF3-mNeonGreen reporter cell line); format: cell-based; settings: HEK-293T, 24 h, @ 1 μM, HEK 293T IKZF3-mNeonGreen reporter, 24 hours incubation
The entries below are paired with their reported inhibition at 1 µM.
value type: inhibition at 1 µM (%)

- compound: "N#CC1(C(=O)N2CCC(C3CN([C@H]4CCCC[C@@H]4Oc4ccc5c(c4)CN(C4CCC(=O)NC4=O)C5=O)C3)CC2)CC1 (stereo partly shown)"
  quantitative readout: 44
- compound: "CC12CC(C(=O)N3CCC(C4CN([C@H]5CCCC[C@@H]5Oc5ccc6c(c5)CN(C5CCC(=O)NC5=O)C6=O)C4)CC3)(C1)C2 (stereo partly shown)"
  quantitative readout: 67.5
- compound: "CC1(C(=O)N2CCC(C3CN([C@H]4CCCC[C@@H]4Oc4ccc5c(c4)CN(C4CCC(=O)NC4=O)C5=O)C3)CC2)CC1 (stereo partly shown)"
  quantitative readout: 26.2
- compound: "O=C1CCC(N2Cc3cc(O[C@@H]4CCC[C@@H]4N4CC(c5ccnc6ccccc56)C4)ccc3C2=O)C(=O)N1 (stereo partly shown)"
  quantitative readout: 26.6
- compound: "CC1(C(=O)N2CCC(C3CN([C@H]4CCCC[C@@H]4Oc4ccc5c(c4)CN(C4CCC(=O)NC4=O)C5=O)C3)CC2)CCCC1 (stereo partly shown)"
  quantitative readout: 60.8
- compound: "O=C1CCC(N2Cc3cc(O[C@H]4CCCC[C@@H]4N4CC(c5ccc(C(F)(F)F)nc5)C4)ccc3C2=O)C(=O)N1 (single isomer, unassigned)"
  quantitative readout: 39.5
- compound: "O=C1CCC(N2Cc3cc(O[C@H]4CCCC[C@@H]4N4CC(C5CCN(C(=O)C6(F)CC6)CC5)C4)ccc3C2=O)C(=O)N1 (stereo partly shown)"
  quantitative readout: 31

---

The entries below are paired with their reported EC50.
target: UniProt Q96SW2; assay: Cereblon (CRBN) target engagement, NanoBRET TE Intracellular E3 Ligase Assay in transfected HEK-293T cells; settings: read-out: CRBN Binding EC50

- compound: "O=C1CCC(N2Cc3cc(O[C@@H]4CCCC[C@H]4N4CC(c5ncc(Cl)cn5)C4)ccc3C2=O)C(=O)N1 (single isomer, unassigned)"
  EC50: "9 nM"
- compound: "O=C1CCC(N2Cc3cc(O[C@@H]4CCCC[C@@H]4N4CC(c5ccncc5Cl)C4)ccc3C2=O)C(=O)N1 (mixture of isomers) [Compound 162-B]"
  EC50: "59 nM"
- compound: "O=C1CCC(N2Cc3cc(O[C@H]4CCCC[C@H]4N4CC(c5ccncc5)C4)ccc3C2=O)C(=O)N1 (single isomer, unassigned) [Compound 86-B]"
  EC50: "76 nM"

Values were extracted from patent US20250100996A1.
